Biological target: T1, human AMHRII (anti-Mullerian hormone receptor type 2) (human, UniProt Q16671 18-573)
T1 construct: whole, on cells; also called AMHR2; human AMHR2
T1 sequence (looked up): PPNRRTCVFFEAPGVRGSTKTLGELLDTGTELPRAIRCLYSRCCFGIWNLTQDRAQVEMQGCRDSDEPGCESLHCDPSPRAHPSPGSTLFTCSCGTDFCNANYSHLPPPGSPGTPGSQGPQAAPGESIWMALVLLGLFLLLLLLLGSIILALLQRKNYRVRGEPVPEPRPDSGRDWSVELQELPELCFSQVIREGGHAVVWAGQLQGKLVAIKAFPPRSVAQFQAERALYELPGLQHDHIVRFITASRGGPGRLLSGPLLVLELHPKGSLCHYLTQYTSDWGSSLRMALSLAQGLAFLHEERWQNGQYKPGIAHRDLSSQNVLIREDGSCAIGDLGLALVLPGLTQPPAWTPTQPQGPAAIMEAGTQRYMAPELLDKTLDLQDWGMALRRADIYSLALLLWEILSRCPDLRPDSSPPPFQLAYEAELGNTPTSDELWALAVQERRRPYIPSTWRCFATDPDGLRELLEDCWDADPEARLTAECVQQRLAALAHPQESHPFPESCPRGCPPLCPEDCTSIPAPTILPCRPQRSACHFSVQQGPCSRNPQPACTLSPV
Assay: FACS on CHO-K1 cells over-expressing human AMHR2
Observed property: EC50 (nM)
# output: bare number, implied unit nM

{"Binder": "xi108F3D1E9 hIgG1 (antibody, V domains shown, Murine variable domains in human chimeric format, human IgG1; also called xi108F3D1E9 hlgG1; 108F3D1E9 (chimeric)) VH: DVQLQESGPGLVKPSQSLSLTCTVTGYSITSDFAWNWIRQFPGNKLEWMGYINFSGSTSYNPSLKSRISITRDTSKNQFFLQLNSVTTEDTATYYCAGSRYSWFAYWGQGTLVTVSA VL: DIVLTQSPASLAVSLGQRATISCRASESVDTYGNSFMHWYQQKPGQPPKLLIYRASNLESGIPARFSGSGSRTDFTLTINPVEADDVATYYCQQSNEDPYTFGGGTKLEIK", "EC50 / nM": 1.05}
{"Binder": "108F3D1E9 H2L4 hIgG1 (antibody, V domains shown, Humanized, human IgG1; also called 108F3D1E9 H2L4 hlgG1) VH: QLQLQESGPGLVKPSETLSLTCTVSGYSITSDFAWNWIRQPPGKGLEWMGYISFSGSTSYNPSLKSRVTISRDTSKNQFSLKLSSVTAADTAVYYCAGSRYSWFAYWGQGTLVTVSS VL: DIVLTQSPSSLSVSVGDRATITCRASESVDTYGNSFMHWYQQKPGQPPKLLIYRASNLESGIPARFSGSGSRTDFTLTISSVQPEDFATYYCQQSNEDPYTFGGGTKLEIK", "EC50 / nM": 0.65}
{"Binder": "94C4C3 H1L2 hIgG1 (antibody, V domains shown, Humanized, human IgG1; also called 94C4C3 H1L2 hlgG1) VH: QLQLQESGPGLVKPSETLSLTCTVSGYSITSDYAWNWIRQPPGKGLEWIGYISYSGSISYNPSLKSRVTISVDTSKNQFSLKLSSVTAADTAVYYCARSRYSWFDYWGQGTLVTVSS VL: EIVLTQSPGTLSLSPGERATLSCSASESVDTYGNSFMHWYQQKPGQPPRLLIYRASSLESGIPVRFSGSGSRTDFTLTISRLEPEDFAVYYCQQSNEDPYTFGGGTKVEIK", "EC50 / nM": 1.46}

Exercise: Using the record for 108F3D1E9 H1L1 hIgG1 (antibody, V domains shown, Humanized, PTM de-risked VH, human IgG1; also called 108F3D1E9 H1L1 hlgG1) VH: QLQLQESGPGLVKPSETLSLTCTVSGYSITSDFAWNWIRQPPGKGLEWIGYISFSGSTSYNPSLKSRVTISVDTSKNQFSLKLSSVTAADTAVYYCARSRYSWFAYWGQGTLVTVSS VL: DIQMTQSPSSLSASVGDRVTITCRASESVDTYGNSFMHWYQQKPGKAPKLLIYRASNLESGVPSRFSGSGSGTDFTLTISSLQPEDFATYYCQQSNEDPYTFGGGTKVEIK , report its EC50.
Key: 0.74

Exercise: Using the record for 31D9B3 VH1.1-VL2.1 hIgG1 (antibody, V domains shown, Humanized, PTM de-risked, human IgG1; also called 31D9B3 VH1.1-VL2.1 hlgG1) VH: QVQLVQSGAEVKKPGASVKVSCKASGYTFTDYWVSWVRQAPGQGLEWMGEIYPKEGVSNFNEKFKGRVTMTTDTSTSTAYMELRSLRSDDTAVYYCARQRDYWGQGTLVTVSS VL: DVVMTQSPLSLPVTLGQPASISCRSSQSLEYGSGYTYLEWYLQRPGQSPRLLIYGVSNRFSGVPDRFSGSGSGTDFTLKISRVEAEDVGVYYCFQATHDPNTFGQGTKLEIK , report its EC50.
Key: 89.7

Exercise: Using the record for 94C4C3 H1L3 hIgG1 (antibody, V domains shown, Humanized, human IgG1; also called 94C4C3 H1L3 hlgG1) VH: QLQLQESGPGLVKPSETLSLTCTVSGYSITSDYAWNWIRQPPGKGLEWIGYISYSGSISYNPSLKSRVTISVDTSKNQFSLKLSSVTAADTAVYYCARSRYSWFDYWGQGTLVTVSS VL: EIVLTQSPGTLSLSPGERATLSCSASESVDTYGNSFMHWYQQKPGQPPRLLIYRASSLESGIPVRFSGSGSRTDFTLTISRVEAEDFAVYYCQQSNEDPYTFGGGTKLEIK , report its EC50.
Key: 1.45

Exercise: Using the record for 31D9B3 H1L2 hIgG1 (antibody, V domains shown, Humanized, human IgG1; also called 31D9B3 H1L2 hlgG1; 31D9B3 VH1-VL2 hlgG1) VH: QVQLVQSGAEVKKPGASVKVSCKASGYTFTDYWVSWVRQAPGQGLEWMGEIYPKNGVSNFNEKFKGRVTMTTDTSTSTAYMELRSLRSDDTAVYYCARQRDYWGQGTLVTVSS VL: DVVMTQSPLSLPVTLGQPASISCRSSQSLEYGDGYTYLEWYLQRPGQSPRLLIYGVSNRFSGVPDRFSGSGSGTDFTLKISRVEAEDVGVYYCFQATHDPNTFGQGTKLEIK , report its EC50.
Key: 1.06

Exercise: Using the record for 108F3D1E9 H2L2 hIgG1 (antibody, V domains shown, Humanized, human IgG1; also called 108F3D1E9 H2L2 hlgG1) VH: QLQLQESGPGLVKPSETLSLTCTVSGYSITSDFAWNWIRQPPGKGLEWMGYISFSGSTSYNPSLKSRVTISRDTSKNQFSLKLSSVTAADTAVYYCAGSRYSWFAYWGQGTLVTVSS VL: DIQLTQSPSSLSASVGDRVTITCRASESVDTYGNSFMHWYQQKPGKPPKLLIYRASNLESGIPSRFSGSGSGTDFTLTISSLQPEDFATYYCQQSNEDPYTFGGGTKVEIK , report its EC50.
Key: 0.68

Exercise: Using the record for 108F3D1E9 H1L2 hIgG1 (antibody, V domains shown, Humanized, human IgG1; also called 108F3D1E9 H1L2 hlgG1) VH: QLQLQESGPGLVKPSETLSLTCTVSGYSITSDFAWNWIRQPPGKGLEWIGYISFSGSTSYNPSLKSRVTISVDTSKNQFSLKLSSVTAADTAVYYCARSRYSWFAYWGQGTLVTVSS VL: DIQLTQSPSSLSASVGDRVTITCRASESVDTYGNSFMHWYQQKPGKPPKLLIYRASNLESGIPSRFSGSGSGTDFTLTISSLQPEDFATYYCQQSNEDPYTFGGGTKVEIK , report its EC50.
Key: 0.82

Exercise: Using the record for 94C4C3 H2L3 hIgG1 (antibody, V domains shown, Humanized, human IgG1; also called 94C4C3 H2L3 hlgG1) VH: QLQLQESGPGLVKPSETLSLTCTVSGYSITSDYAWNWIRQPPGKGLEWMGYISYSGSISYNPSLKSRITISRDTSKNQFSLKLSSVTAADTAVYYCARSRYSWFDYWGQGTLVTVSS VL: EIVLTQSPGTLSLSPGERATLSCSASESVDTYGNSFMHWYQQKPGQPPRLLIYRASSLESGIPVRFSGSGSRTDFTLTISRVEAEDFAVYYCQQSNEDPYTFGGGTKLEIK , report its EC50.
Key: 1.32

The reported measurements were obtained from patent US20240400701A1.
